# Tested on: Lewis rats
# Conditions: Lewis rats, single dose, observed 5 days
Observed property: MTD (maximum tolerated dose)

Worked examples follow.
{"Compound": "CC(C)C[C@H](N)C(=O)N1CCC[C@H]1B(O)O", "MTD (maximum tolerated dose)": "200 µg/kg"}
{"Compound": "O=C(C1CCCN1)N1CCCC1B(O)O (centres unmarked)", "MTD (maximum tolerated dose)": "≧2,000 μg/kg"}
{"Compound": "C[C@@H](O)[C@H](N)C(=O)N1CCC[C@H]1B(O)O", "MTD (maximum tolerated dose)": "800 µg/kg"}
{"Compound": "NCCCC[C@H](N)C(=O)N1CCC[C@H]1B(O)O", "MTD (maximum tolerated dose)": "≧2,000 μg/kg"}

Then this compound:
What does the record list as MTD (maximum tolerated dose) for N[C@@H](CO)C(=O)N1CCC[C@H]1B(O)O ?
4,000 μg/kg

----------
# System: Lewis rats
# Conditions: Lewis rats, single dose, observed 5 days
# Experimental: Serum DPP-IV inhibition and observation of acute toxicity of amino boronic dipeptides in Lewis rats. […] After observations were completed or at the onset of a moribund state, humane euthanasia was performed by asphyxiation in 100% CO2.

{"Compound": "NC(N)=NCCC[C@H](N)C(=O)N1CCC[C@H]1B(O)O", "MTD (maximum tolerated dose)": "≧2,000 μg/kg"}
{"Compound": "C[C@H](N)C(=O)N1CCC[C@H]1B(O)O", "MTD (maximum tolerated dose)": "≧2,000 μg/kg"}
